Give measured pKi for each item. Keep answers brief.
Molecular target: human dopamine D2 receptor (hD2R) (Homo sapiens)
Sequence (P14416 whole entry): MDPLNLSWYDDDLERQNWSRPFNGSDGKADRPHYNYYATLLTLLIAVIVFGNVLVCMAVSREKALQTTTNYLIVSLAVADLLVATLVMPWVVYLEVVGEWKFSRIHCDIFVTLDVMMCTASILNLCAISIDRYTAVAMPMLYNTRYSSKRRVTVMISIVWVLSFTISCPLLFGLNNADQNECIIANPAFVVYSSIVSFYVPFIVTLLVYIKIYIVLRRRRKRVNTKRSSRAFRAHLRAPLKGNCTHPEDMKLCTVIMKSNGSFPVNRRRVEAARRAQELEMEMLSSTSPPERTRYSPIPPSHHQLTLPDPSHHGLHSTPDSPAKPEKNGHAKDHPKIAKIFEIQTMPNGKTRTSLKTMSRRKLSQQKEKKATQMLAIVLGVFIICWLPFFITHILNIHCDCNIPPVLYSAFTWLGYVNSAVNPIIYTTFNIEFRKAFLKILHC
Assay: Human D2 receptor binding assay ([^3H]-Spiperone)
Settings: CHO cells expressing hD2R, geometric mean of 2-5 determinations unless marked b (single determination)
// pKi is dimensionless: -log10 of concentration (M)

Documented pKi of CCN1CCc2cc(NS(=O)(=O)c3ccc(C(C)C)cc3)c(OC)nc2CC1 : 6.98

Record COc1nc2c(cc1NS(=O)(=O)c1ccc(C(C)OC)cc1)CCN(C)CC2 (stereo not shown) , field pKi: 6.69

Query COc1nc2c(cc1NS(=O)(=O)c1ccc(C)cc1)CCN(C)CC2 yields pKi of 6.48

The reported value for COc1nc2c(cc1NS(=O)(=O)c1ccc(C3CCOC(C)(C)C3)cc1)CCN(C)CC2 (single isomer, unassigned) [Example 86] in terms of pKi is 5.86

# compound COc1nc2c(cc1NS(=O)(=O)c1ccc(OC3CCOC3)cc1)CCN(C)CC2 (stereo not shown) ; its pKi = 6.47

Sure, the documented pKi for COc1nc2c(cc1NS(=O)(=O)c1cnc(OC3CCCC3)c(F)c1)CCN(C)CC2 is 7.60

The recorded pKi for CCN1CCc2cc(NS(=O)(=O)c3ccc(C4CCOC4)cc3)c(OC)nc2CC1 (stereo not shown) is 6.12

According to the records, this compound COc1nc2c(cc1NS(=O)(=O)c1ccc(O[C@@H]3CCOC3)cc1)CCN(C)CC2 displays pKi of 6.59

Noted for CCN1CCc2cc(NS(=O)(=O)c3ccc([C@@H]4CCCCO4)c(F)c3)c(OC)nc2CC1 : its pKi reads 6.88

So, COc1nc2c(cc1NS(=O)(=O)c1cnc(C3CCCCC3)nc1)CCN(C)CC2 ? Its pKi was 6.34

Form field pKi, entry COc1nc2c(cc1NS(=O)(=O)c1ccc([C@H]3CCCCO3)cc1)CCNCC2 : 5.90

Lab note: COc1nc2c(cc1NS(=O)(=O)c1ccc(C3CCOC(C)(C)C3)cc1)CCN(C)CC2 (single isomer, unassigned) [Example 87] gave pKi of 6.56

# compound COc1nc2c(cc1NS(=O)(=O)c1ccc(C3CC(F)CCO3)cc1)CCN(C)CC2 (single isomer, unassigned; diastereomer-1) [Example 108] ; its pKi = 5.71

pKi recorded for this compound, CCN1CCc2cc(NS(=O)(=O)c3ccc(C)c(F)c3)c(OC)nc2CC1 , is 6.00

Record summary for COc1nc2c(cc1NS(=O)(=O)c1ccc([C@H]3CC[C@H](OC)CC3)cc1)CCN(C)CC2 : reported pKi = 6.47

// pKi value for COc1nc2c(cc1NS(=O)(=O)c1ccc(C)cc1)CCN(CCCF)CC2 : 6.67

###

Biological target: human dopamine D3 receptor (hD3R) (Homo sapiens)
Sequence (P35462 whole entry): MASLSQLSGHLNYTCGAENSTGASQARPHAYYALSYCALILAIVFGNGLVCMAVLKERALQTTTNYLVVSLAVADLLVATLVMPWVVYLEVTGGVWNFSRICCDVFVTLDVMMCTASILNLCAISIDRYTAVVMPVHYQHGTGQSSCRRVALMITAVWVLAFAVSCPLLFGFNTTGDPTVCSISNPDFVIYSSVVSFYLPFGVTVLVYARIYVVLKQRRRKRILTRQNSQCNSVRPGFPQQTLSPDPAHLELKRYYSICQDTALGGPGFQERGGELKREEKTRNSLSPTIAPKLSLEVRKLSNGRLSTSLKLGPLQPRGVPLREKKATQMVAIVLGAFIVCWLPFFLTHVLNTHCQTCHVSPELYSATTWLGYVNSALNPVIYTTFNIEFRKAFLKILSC
Assay: Human D3 receptor binding assay ([^3H]-7-OH-DPAT)
Settings: CHO cells expressing hD3R, geometric mean of 2-5 determinations unless marked b (single determination), read-out: hD3 in CHO cells Ki
Reported endpoint: Ki (nM)
Just the number please, in nM, no unit attached.

Let me check: COc1nc2c(cc1NS(=O)(=O)c1ccc([C@]3(F)C[C@H](OCCF)C3)cc1)CCN(C)CC2 [Example 133] , system human dopamine D3 receptor (hD3R) (Homo sapiens), measured Ki is 2.47

Here CCCc1ccc(S(=O)(=O)Nc2cc3c(nc2OC)CCN(CC)CC3)cc1 [Example 62] was tested on human dopamine D3 receptor (hD3R) (Homo sapiens), and its Ki came to 0.4

Hey, human dopamine D3 receptor (hD3R) (Homo sapiens) data for CCCc1ccc(S(=O)(=O)Nc2cc3c(nc2OC)CCN(C)CC3)cc1 [Example 118] : Ki came out at 0.57

The reported Ki value, human dopamine D3 receptor (hD3R) (Homo sapiens), for CCN1CCc2cc(NS(=O)(=O)c3ccc(C)cc3)c(OC)nc2CC1 [Example 53] reads 2.75

Ki value, target or system human dopamine D3 receptor (hD3R) (Homo sapiens), for COc1nc2c(cc1NS(=O)(=O)c1ccc(C3CCCC3)nc1)CCN(C)CC2 [Example 16] : 2.41

The compound COc1nc2c(cc1NS(=O)(=O)c1ccc(OC3CCOCC3)cc1)CCN(C)CC2 [Example 78] on human dopamine D3 receptor (hD3R) (Homo sapiens): Ki was 7.56

Entry CCOc1ccc(S(=O)(=O)Nc2cc3c(nc2OC)CCN(CC)CC3)cc1 [Example 52] : Ki on human dopamine D3 receptor (hD3R) (Homo sapiens) = 2.56

Entry COc1nc2c(cc1NS(=O)(=O)c1ccc(C3(OC)CCCC3)cc1)CCN(C)CC2 [Example 95] under human dopamine D3 receptor (hD3R) (Homo sapiens) had Ki of 0.6

Observed Ki on human dopamine D3 receptor (hD3R) (Homo sapiens), entry COc1nc2c(cc1NS(=O)(=O)c1ccc([C@H]3C[C@H](OC)C3)cc1)CCN(C)CC2 [Example 76] , equals 1.28

human dopamine D3 receptor (hD3R) (Homo sapiens) data for CCN1CCc2nc(OC)c(NS(=O)(=O)c3ccc(C(C)C)cc3)cc2C(C)C1 (stereo not drawn) [Example 56] ; its Ki: 2.12

Lab entry: human dopamine D3 receptor (hD3R) (Homo sapiens) assay, compound CCN1CCc2cc(NS(=O)(=O)c3ccc(C(C)C)cc3)c(OC)nc2CC1 [Example 51] , Ki = 1.12

The measured Ki that CCCN1CCc2cc(NS(=O)(=O)c3ccc(C(C)C)cc3)c(OC(F)F)nc2CC1 [Example 12] showed for human dopamine D3 receptor (hD3R) (Homo sapiens) is 281
